- testTarget: T1, human CD112R expressed on Jurkat cells (human, UniProt Q6DKI7 1-326)
- T1 construct: whole, on cells; Used for both Jurkat-CD112R OE cells and wild type Jurkat cells; which cells is said under assay; also called PVRIG; Jurkat-CD112R OE
- T1 sequence (looked up): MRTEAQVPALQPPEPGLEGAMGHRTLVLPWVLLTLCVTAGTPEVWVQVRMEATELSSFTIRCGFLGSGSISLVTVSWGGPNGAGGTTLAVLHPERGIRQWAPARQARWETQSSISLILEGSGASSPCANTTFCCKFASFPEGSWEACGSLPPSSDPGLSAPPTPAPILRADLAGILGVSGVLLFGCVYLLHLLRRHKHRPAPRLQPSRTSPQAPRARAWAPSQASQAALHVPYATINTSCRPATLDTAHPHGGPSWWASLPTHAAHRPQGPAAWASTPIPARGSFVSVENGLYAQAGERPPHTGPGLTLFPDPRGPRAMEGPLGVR
- assayName: flow cytometry, Jurkat cells over-expressing human CD112R, 0.63 ug/mL antibody
experimentalEndpoint: gMFI (fold increase over isotype)

Antibody 36 (antibody, V domains shown, Purified as IgG; compared with an IgG1 isotype control and detected with anti-human IgG Fc; also called antibody clone number 36; clone 36) VH: QVQLVQSGAEVKKPGSSVKVSCKASGGTFATYAISWVRQAPGQGLEWMGGIFPLSGTANYAQKFQGRVTITADESTSTAYMELSSLRSEDTAVYYCARDTGRGYTRHFWFDPWGQGTLVTVSS VL: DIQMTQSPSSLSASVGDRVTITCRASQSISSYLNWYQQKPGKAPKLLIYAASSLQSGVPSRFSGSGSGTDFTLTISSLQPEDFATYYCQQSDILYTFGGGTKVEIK ... 31 fold increase over isotype
Antibody 32 (antibody, V domains shown, Purified as IgG; compared with an IgG1 isotype control and detected with anti-human IgG Fc; also called antibody clone number 32; parent clone 32) VH: QVQLVQSGAEVKKPGSSVKVSCKASGGTFSSYAISWVRQAPGQGLEWMGGIIPISGTANYAQKFQGRVTITADESTSTAYMELSSLRSEDTAVYYCARDTGRGYTRHFWFDPWGQGTLVTVSS VL: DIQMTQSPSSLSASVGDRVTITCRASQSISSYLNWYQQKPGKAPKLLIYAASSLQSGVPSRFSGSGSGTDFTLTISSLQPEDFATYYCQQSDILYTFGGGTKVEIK ... 27.9 fold increase over isotype
Antibody 10 (antibody, V domains shown, Purified as IgG; compared with an IgG1 isotype control and detected with anti-human IgG Fc; also called antibody clone number 10; clone 10) VH: EVQLVESGGGLVQPGRSLRLSCAASGFTFDDYAVHWVRQAPGKGLEWVSGISWSSGLIGYADSVKGRFTISRDNAKNSLYLQMNSLRAEDTAVYYCAKGPPTYQDYFDLWGRGTLVTVSS VL: EIVLTQSPATLSLSPGERATLSCRASQSVSRYLAWYQQKPGQAPRLLIYDASNRATGIPARFSGSGSGTDFTLTISSLEPEDFAVYYCQQVSFFPPITFGGGTKVEIK ... 55.7 fold increase over isotype

Let us examine a further case.
Looking up Antibody 58 (antibody, V domains shown, Purified as IgG; compared with an IgG1 isotype control and detected with anti-human IgG Fc; also called antibody clone number 58; clone 58) VH: EVQLVESGGGLVQPGRSLRLSCTASGFTFGDYAMSWFRQAPGKGLEWVGFIGSKFYGGETEYTASVKGRFTISRDGSKSIAYLQMNSLKTEDTAVYYCARGPRRYTYGMDVWGQGTTVTVSS VL: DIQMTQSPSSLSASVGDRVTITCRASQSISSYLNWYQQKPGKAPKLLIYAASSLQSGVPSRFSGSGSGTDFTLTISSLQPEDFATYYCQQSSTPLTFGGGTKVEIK , I see its gMFI (fold increase over isotype) listed as 37.3 fold increase over isotype
